Target: purified NANOLUC® Luciferase (Oplophorus gracilirostris, UniProt Q9GV45, A31E/A60N/A81I/F95D/I117V/K70R/L54V/L99Q/M102K/N193R/P142E/Q151K/Q38R/Q45L/V71I/Y165I)
Sequence (Q9GV45 28-196 with tags or gaps with the stated changes limits assumed): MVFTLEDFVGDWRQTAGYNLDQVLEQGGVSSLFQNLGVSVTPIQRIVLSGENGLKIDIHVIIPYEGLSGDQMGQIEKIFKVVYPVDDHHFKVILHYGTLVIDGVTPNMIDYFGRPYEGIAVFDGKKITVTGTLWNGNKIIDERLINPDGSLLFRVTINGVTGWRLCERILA
Format: biochemical
Conditions: relative value, furimazine set to 1; purified NanoLuc; initial light output three minutes after substrate addition
Please use the following RLU at 100 uM ranges when assigning a class: bottom = under 0.002, middle = from 0.002 up to 0.01, top = 0.01 and over

In [3]: df
Out[3]:
                                    molecule  assigned_label
 0  NCCCCCCOc1ccc(Cc2nc3c(Cc4ccccc4)[nH]c(-c4ccccc4)cn-3c2=O)cc1F [JRW-0801]          middle
 1  O=C(O)CCCCCCCOc1cccc(Cc2nc3c(Cc4ccccc4)[nH]c(-c4ccccc4)cn-3c2=O)c1 [JRW-0722]             top
 2  O=c1c(Cc2ccc(OCCCCCCS(=O)(=O)OCC(Cl)(Cl)Cl)c(Cl)c2)nc2c(Cc3ccccc3)[nH]c(-c3ccccc3)cn1-2 [JRW-0665]          middle
 3  O=c1c(Cc2cc(F)c(OCCCCCCS(=O)(=O)[O-])c(F)c2)nc2c(Cc3ccccc3)[nH]c(-c3ccccc3)cn1-2.[Na+] [JRW-0771]             top
 4  O=c1c(Cc2cccc(OCCCS(=O)(=O)[O-])c2)nc2c(Cc3ccccc3)[nH]c(-c3ccccc3)cn1-2.[Na+] [JRW-0713]          bottom
 5  O=c1c(Cc2cccc(OCCCCCCBr)c2)nc2c(Cc3ccccc3)[nH]c(-c3ccccc3)cn1-2 [JRW-0692]          middle
 6  CC(C)(C)OC(=O)CCCCCCCOc1cccc(Cc2nc3c(Cc4ccccc4)[nH]c(-c4ccccc4)cn-3c2=O)c1 [JRW-0719]          bottom
 7  CC(C)(C)OC(=O)CCCCCOc1cccc(Cc2nc3c(Cc4ccccc4)[nH]c(-c4ccccc4)cn-3c2=O)c1 [JRW-0682]          middle
 8  O=c1c(Cc2ccc(OCCCCCCS(=O)(=O)[O-])c(F)c2)nc2c(Cc3ccccc3)[nH]c(-c3ccccc3)cn1-2.[Na+] [JRW-0769]             top
 9  CC(C)(C)OC(=O)c1cccc(-c2cn3c(=O)c(Cc4ccco4)nc-3c(Cc3ccccc3)[nH]2)c1 [JRW-0755]          bottom
10  O=c1c(Cc2ccc(Cl)c(OCCCCCCS(=O)(=O)[O-])c2)nc2c(Cc3ccccc3)[nH]c(-c3ccccc3)cn1-2.[Na+] [JRW-0766]             top
11  O=c1c(Cc2ccco2)nc2c(Cc3ccccc3)[nH]c(-c3ccccc3)cn1-2 [Furimazine, reference compound]             top
12  O=C(O)CCCOc1cccc(Cc2nc3c(Cc4ccccc4)[nH]c(-c4ccccc4)cn-3c2=O)c1 [JRW-0716]          middle
13  O=c1c(Cc2ccc(OCCCCCCBr)c(Cl)c2)nc2c(Cc3ccccc3)[nH]c(-c3ccccc3)cn1-2 [JRW-0720]          middle
